I'd be grateful if you could share measured recombinant barcode read abundance (log10) for these entries.
# TEST METHOD NOTES: recombinant barcode read abundance after kanamycin selection (control-corrected) (log10(CPM+1)); higher = more efficient recombination; sequences stand for … in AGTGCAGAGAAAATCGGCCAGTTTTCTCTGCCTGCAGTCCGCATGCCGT…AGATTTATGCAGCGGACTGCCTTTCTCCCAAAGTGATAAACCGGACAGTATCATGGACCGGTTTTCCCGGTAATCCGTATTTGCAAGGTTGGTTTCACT; site = the 11-nt target;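 note: IS621 recombinase and bridge RNA in Escherichia coli cells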
Just the number, please.

The recorded recombinant barcode read abundance (log10) for CTGGAGTCTTGGGTTCTAACCTGTTGCCT (site CTGGAGTCTAG) is 2.33

The recorded recombinant barcode read abundance (log10) for GAATCTACTTGGGTTCTAACCTGTTGCTT (site GACTCTACTAA) is 0.0804

The recorded recombinant barcode read abundance (log10) for CTGCGCCCTTGGGTTCTAACCTGTTGCCT (site CTGCGCCCTAG) is 1.1

The recorded recombinant barcode read abundance (log10) for TCGTGCCCTTGGGTTCTAACCTGTTGCTG (site TCGTGCCCTCA) is 0.156

The recorded recombinant barcode read abundance (log10) for TGTAAGACTTGGGTTCTAACCTGTTGCAG (site GAACGCTCTAA) is 0.0634

The recorded recombinant barcode read abundance (log10) for GTTTCAACTTGGGTTCTAACCTGTTGCCA (site GTTTCAACTTG) is 0.061

The recorded recombinant barcode read abundance (log10) for CGGGCCACTTGGGTTCTAACCTGTTGCCT (site CCGGCCACTAG) is 0.0207

The recorded recombinant barcode read abundance (log10) for GTCTAAGCTTGGGTTCTAACCTGTTGCCT (site GTCTAAGCTAG) is 0.171

The recorded recombinant barcode read abundance (log10) for GACTATTCTTGGGTTCTAACCTGTTGCCT (site GATTATTCTAG) is 0.178

The recorded recombinant barcode read abundance (log10) for AAAGTACCTTGGGTTCTAACCTGTTGCCT (site CAAGTACCTAG) is 0.741

Attribution: the supplement of paper PMC11208160
